PROCEDURE SUMMARY: Plasma stability, beagle dog plasma (K2EDTA)
Type: in vitro ADME
RECORDED CONDITIONS: beagle dog plasma, 2 μM, anti-coagulant K2-EDTA, 120 min
Structures can show the parent of a compound that is named as a salt.
Record form. Attribute: % Remaining at T120. Fill in for each entry.
Reply with just the number (in %).

% Remaining at T120 measured on CNS(=O)(=O)Nc1cccc(Cc2c(CN3CCNCC3)c3cc(F)c(OC(=O)N(C)C)cc3oc2=O)c1F [Compound 134] = 89.9

The compound listed as CCCS(=O)(=O)Nc1cccc(Cc2c(CN3CCNCC3)c3cc(Cl)c(OC(=O)N(C)C)cc3oc2=O)c1F [Compound 167] shows % Remaining at T120 equal to 106.2

// recorded % Remaining at T120 for CCN(C)Cc1c(Cc2cccc(NS(=O)(=O)NC)c2F)c(=O)oc2cc(OC(=O)N(C)C)c(F)cc12 [Compound 238] : 93.8

Field % Remaining at T120 (entry CNS(=O)(=O)Nc1nccc(Cc2c(CN(C)C)c3ccc(OC(=O)N(C)C)cc3oc2=O)c1F [Compound 124] ) reads 101.5

For this compound ( CNS(=O)(=O)Nc1cccc(Cc2c(CN(C)C)c3ccc(OC(=O)N(C)C)cc3oc2=O)c1Cl [Compound 274] ), measured % Remaining at T120 is 100.5

For CNS(=O)(=O)Nc1cccc(Cc2c(CN3CCNCC3)c3ccc(OC(=O)N(C)C)cc3oc2=O)c1Cl [Compound 246, hydrochloride] the compound record lists % Remaining at T120 as 100.2

The compound identified as CNS(=O)(=O)Nc1cccc(Cc2c(CN3CCNCC3)c3cc(Cl)c(OC(=O)N(C)C)cc3oc2=O)c1Cl [Compound 256, hydrochloride] registered its % Remaining at T120 at 99.4

Data provenance: patent US20250179057A1
